Cited source: ChEMBL document CHEMBL1201862

Parameter AC50: see the listing below.
- assay.system: Paired box protein Pax-8 (Homo sapiens)
- Sequence (Q06710 whole entry): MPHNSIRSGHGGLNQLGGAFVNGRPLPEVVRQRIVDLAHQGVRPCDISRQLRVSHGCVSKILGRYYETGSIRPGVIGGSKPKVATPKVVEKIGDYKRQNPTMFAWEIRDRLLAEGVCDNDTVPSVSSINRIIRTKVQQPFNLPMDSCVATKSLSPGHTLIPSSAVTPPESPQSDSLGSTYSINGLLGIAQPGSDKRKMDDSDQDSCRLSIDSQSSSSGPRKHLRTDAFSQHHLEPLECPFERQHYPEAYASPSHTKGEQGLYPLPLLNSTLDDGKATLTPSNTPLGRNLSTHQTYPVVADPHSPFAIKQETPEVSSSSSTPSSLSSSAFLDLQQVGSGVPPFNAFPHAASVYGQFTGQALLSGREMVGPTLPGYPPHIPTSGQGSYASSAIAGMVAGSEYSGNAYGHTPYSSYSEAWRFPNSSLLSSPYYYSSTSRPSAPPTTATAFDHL
- experimental.details: inhibitors of PAX8-driven TPO luciferase reporter, dose response, RMG-I cells, cherry-pick (AID 687027);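 note: luciferase reporter driven by Pax8 target thyroperoxidase promoter measured by SteadyGlo luminescence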
- Assay type: functional, cell-based
The source made the active and inactive calls.
property.label: AC50

[[record]]
compound_string = "Cc1noc(C)c1S(=O)(=O)Nc1ccc2c(c1)C(=O)N([C@@H](C)CO)C[C@H](C)[C@H](CN(C)C(=O)Nc1ccc(C(F)(F)F)cc1)OCCCC[C@H](C)O2"
endpoint_result = "14.2 µM (active)"

[[record]]
compound_string = "C[n+]1c2n(c3ccccc31)N=C(c1cc(C(C)(C)C)c(O)c(C(C)(C)C)c1)CS2"
endpoint_result = "0.906 µM (active)"

[[record]]
compound_string = "CC(=NNC(=S)N1CCN(C2CCCCCC2)CC1)c1ccccn1"
endpoint_result = "< 0.26 µM (active)"

[[record]]
compound_string = "O=C(Nc1cccc(F)c1)N1CCCCN2[C@@H](CO)[C@@H](c3ccc(-c4ccccc4F)cc3)[C@@H]2C1"
endpoint_result = "21.1 µM (active)"

[[record]]
compound_string = "C[C@@H]1CN([C@H](C)CO)C(=O)c2cc(NC(=O)c3ccccc3)ccc2O[C@@H](C)CCCCO[C@H]1CN(C)Cc1ccc(C(F)(F)F)cc1"
endpoint_result = "3.09 µM (active)"

[[record]]
compound_string = "C[C@@H]1CCCCO[C@@H](CN(C)Cc2ccc(Cl)c(Cl)c2)[C@H](C)CN([C@H](C)CO)C(=O)c2cc(NC(=O)Nc3ccc(F)cc3)ccc2O1"
endpoint_result = "5.06 µM (active)"

[[record]]
compound_string = "C[C@H]1CN([C@@H](C)CO)C(=O)c2c(c3ccccc3n2C)-c2ccccc2CO[C@@H]1CN(C)Cc1cccc(C(F)(F)F)c1"
endpoint_result = "9.89 µM (active)"

[[record]]
compound_string = "O=C(Nc1ccc([N+](=O)[O-])cc1)C(=O)Nc1cccc(C(=O)O)c1"
endpoint_result = "5 µM (active)"

[[record]]
compound_string = "O=C(Nc1cccc(C(=O)O)c1)Nc1ccc2c(c1)OCO2"
endpoint_result = "5.13 µM (active)"

[[record]]
compound_string = "CN1c2ccc(-c3cccc(C#N)c3)cc2[C@H]2[C@H](CCN2S(=O)(=O)c2ccccc2F)[C@H]1CO"
endpoint_result = "4.87 µM (active)"

[[record]]
compound_string = "Cn1nnnc1Sc1ncnc2scc(-c3cccc(S(C)(=O)=O)c3)c12"
endpoint_result = "2.03 µM (active)"

[[record]]
compound_string = "C[C@@H]1CN([C@H](C)CO)S(=O)(=O)c2ccc(C#Cc3cccc(F)c3)cc2O[C@@H]1CN(C)C(=O)NC1CCCCC1"
endpoint_result = "8.38 µM (active)"

[[record]]
compound_string = "N#Cc1ccc(-c2ccc([C@@H]3[C@@H]4CN(C(=O)C5CC5)C[C@H]3N4)cc2)cc1"
endpoint_result = "1.16 µM (active)"

[[record]]
compound_string = "C[C@@H]1CCCCO[C@@H](CN(C)CC2CCCCC2)[C@@H](C)CN([C@@H](C)CO)C(=O)c2cc(NC(=O)Nc3ccc(C(F)(F)F)cc3)ccc2O1"
endpoint_result = "12 µM (active)"


* * *

Cytochrome P450 2C9 (Homo sapiens, UniProt P11712): recorded AC50 for assorted compounds
Sequence (P11712 whole entry): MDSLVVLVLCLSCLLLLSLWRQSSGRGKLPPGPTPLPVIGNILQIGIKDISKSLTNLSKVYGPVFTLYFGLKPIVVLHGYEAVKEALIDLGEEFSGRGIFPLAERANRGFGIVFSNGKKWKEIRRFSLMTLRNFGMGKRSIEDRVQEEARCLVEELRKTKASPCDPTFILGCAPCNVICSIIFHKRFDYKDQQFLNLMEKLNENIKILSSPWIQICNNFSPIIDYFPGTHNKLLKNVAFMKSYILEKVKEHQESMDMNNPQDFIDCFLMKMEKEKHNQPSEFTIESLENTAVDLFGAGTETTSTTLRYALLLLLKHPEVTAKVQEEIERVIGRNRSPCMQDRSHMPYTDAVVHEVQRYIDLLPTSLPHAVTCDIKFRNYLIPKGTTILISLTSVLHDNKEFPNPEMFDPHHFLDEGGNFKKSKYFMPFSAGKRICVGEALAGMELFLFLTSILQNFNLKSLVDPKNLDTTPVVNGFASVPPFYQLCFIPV
property.label: AC50

[[record]]
compound = "COc1ccc(S(=O)(=O)N2CCC(C(=O)NCC3CCCO3)CC2)cc1C (stereo unspecified)"
property_label = "AC50"
endpoint_result = "inconclusive"

[[record]]
compound = "C=CCOc1ccc(CNC(C)(C)CO)cc1OCC.Cl"
property_label = "AC50"
endpoint_result = "inconclusive"

[[record]]
compound = "COc1cccc(-c2cc(C(=O)Nc3cccc(O)c3)no2)c1"
property_label = "AC50"
endpoint_result = "inconclusive"

[[record]]
compound = "O=c1cnc2cnc(N3CCOCC3)nc2n1C[C@H]1CCCO1"
property_label = "AC50"
endpoint_result = "inconclusive"

[[record]]
compound = "CCCCCCCC/C=C\\CCCCCCCC(=O)N[C@@H](CO)Cc1ccc(O)cc1"
property_label = "AC50"
endpoint_result = "inconclusive"

[[record]]
compound = "COC(=O)CCC(=O)NNC(=O)CCCOc1ccc(Cl)cc1Cl"
property_label = "AC50"
endpoint_result = "inconclusive"

[[record]]
compound = "CC(C)(C)c1ccc(OCC(=O)N/N=C/c2cc(Br)ccc2OC(=O)c2ccco2)cc1"
property_label = "AC50"
endpoint_result = "inconclusive"

[[record]]
compound = "O=C(Cc1ccccc1[N+](=O)[O-])NCc1ccccc1Cl"
property_label = "AC50"
endpoint_result = "inconclusive"

[[record]]
compound = "CN(C)Cc1ccccc1-c1cc(NC2CC2)ncn1"
property_label = "AC50"
endpoint_result = "inconclusive"

[[record]]
compound = "Cc1cc(C)cc(-n2nnnc2SCC(=O)Nc2nc(-c3ccc(F)cc3)cs2)c1"
property_label = "AC50"
endpoint_result = "inconclusive"


* * *

- assay.system: Corticotropin-releasing factor receptor 2/Corticotropin-releasing factor-binding protein (Homo sapiens, UniProt P24387+Q13324)
- Sequence (Q13324 whole entry): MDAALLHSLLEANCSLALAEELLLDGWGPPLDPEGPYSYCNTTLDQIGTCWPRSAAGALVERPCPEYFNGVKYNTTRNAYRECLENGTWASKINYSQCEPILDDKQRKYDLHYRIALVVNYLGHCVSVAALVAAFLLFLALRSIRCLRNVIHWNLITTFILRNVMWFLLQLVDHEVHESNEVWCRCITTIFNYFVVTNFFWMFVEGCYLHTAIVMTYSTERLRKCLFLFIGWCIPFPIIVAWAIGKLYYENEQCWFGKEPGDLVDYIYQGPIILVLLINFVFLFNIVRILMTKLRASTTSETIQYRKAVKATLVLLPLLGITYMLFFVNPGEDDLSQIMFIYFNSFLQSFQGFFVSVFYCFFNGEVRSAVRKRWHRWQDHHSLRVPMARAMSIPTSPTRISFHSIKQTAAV
- Sequence (P24387 whole entry): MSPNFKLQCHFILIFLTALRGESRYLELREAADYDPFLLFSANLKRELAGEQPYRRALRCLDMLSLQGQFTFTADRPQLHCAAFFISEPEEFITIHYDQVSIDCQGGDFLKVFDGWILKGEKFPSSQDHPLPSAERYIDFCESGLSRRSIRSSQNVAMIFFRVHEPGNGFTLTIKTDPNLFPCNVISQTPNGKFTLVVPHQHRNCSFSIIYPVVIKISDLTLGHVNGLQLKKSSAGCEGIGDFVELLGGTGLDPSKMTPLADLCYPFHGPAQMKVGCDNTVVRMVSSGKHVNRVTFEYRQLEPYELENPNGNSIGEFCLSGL
- experimental.details: activators of CRF receptor 2 with binding protein – uHTS hits, confirmation (AID 602473)
- Format: functional
- details: read-out: EC50_Mean
Active and inactive are the calls of the source.
Possible outcomes: active, inactive

[[record]]
molecule = "Cn1c(=O)c2[nH]c(-c3ccccc3)c(O)c2n(C)c1=O"
class_assignment = "inactive"

[[record]]
molecule = "C=CCn1c(SCC(=O)Nc2c(C)cccc2C)nnc1-c1ccncc1"
class_assignment = "inactive"

[[record]]
molecule = "Cc1nc2ccccn2c1P(=S)(N1CCCCC1)N1CCCCC1"
class_assignment = "active"

[[record]]
molecule = "O=C(CC1CCCCC1)c1c(O)c2ccccc2oc1=O"
class_assignment = "active"

[[record]]
molecule = "O=C(NCN1CCCCC1)c1cnccn1"
class_assignment = "inactive"

[[record]]
molecule = "COc1ccccc1N1CCN(C(=O)C(=O)c2cn(CC(=O)N3CCCC3)c3ccccc23)CC1"
class_assignment = "inactive"

[[record]]
molecule = "COc1ccc(C(=O)COC(=O)CCNS(=O)(=O)c2ccc(NC(C)=O)cc2)c(OC)c1"
class_assignment = "inactive"

[[record]]
molecule = "O=C(Nc1nnc(-c2ccccc2)o1)c1nc2ccccc2s1"
class_assignment = "active"

[[record]]
molecule = "CCN(CC)C(=O)c1c(C)nc2ccccn12"
class_assignment = "inactive"

[[record]]
molecule = "CN(C)S(=O)(=O)c1ccc(Cl)c(NC(=O)CNC2(C)CCS(=O)(=O)C2)c1 (stereo unspecified)"
class_assignment = "inactive"

[[record]]
molecule = "CCCS(=O)(=O)N1CCC(C(=O)NCCCOC(C)C)CC1"
class_assignment = "inactive"


* * *

- assay.system: Cytochrome P450 3A4 (Homo sapiens);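 note: CYP3A4 tested as one member of a cytochrome P450 panel screen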
- Sequence (P08684 whole entry): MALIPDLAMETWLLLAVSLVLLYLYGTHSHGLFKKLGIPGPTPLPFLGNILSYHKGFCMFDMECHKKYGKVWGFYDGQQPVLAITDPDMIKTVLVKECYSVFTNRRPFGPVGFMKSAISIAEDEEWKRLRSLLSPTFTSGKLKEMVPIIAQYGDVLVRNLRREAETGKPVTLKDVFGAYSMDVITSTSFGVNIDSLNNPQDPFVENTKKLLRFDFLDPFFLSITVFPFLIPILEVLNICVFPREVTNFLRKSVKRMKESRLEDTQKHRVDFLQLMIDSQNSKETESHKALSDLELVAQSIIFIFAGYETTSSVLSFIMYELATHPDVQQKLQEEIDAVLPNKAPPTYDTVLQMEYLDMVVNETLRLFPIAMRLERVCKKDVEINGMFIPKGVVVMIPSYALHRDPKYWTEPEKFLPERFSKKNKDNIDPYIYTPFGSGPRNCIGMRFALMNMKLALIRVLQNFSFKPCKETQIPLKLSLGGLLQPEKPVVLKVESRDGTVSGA
Parameter AC50: see the listing below.
property.label: AC50

[[record]]
molecule = "COc1ccccc1CNc1nc(-c2cccnc2)nc2ccccc12"
endpoint_result = "1.26 µM (inconclusive)"

[[record]]
molecule = "O=c1cnc2cnc(N3CCOCC3)nc2n1C[C@H]1CCCO1"
endpoint_result = "15.8 µM (inconclusive)"

[[record]]
molecule = "O=C(CSc1nc2ccccc2o1)NC(=O)NCc1ccccc1"
endpoint_result = "22.4 µM (inconclusive)"

[[record]]
molecule = "Cc1ccc(OC(=O)c2oc3ccc(F)cc3c2C)c(C)c1"
endpoint_result = "39.8 µM (inconclusive)"

[[record]]
molecule = "O=c1c(-c2ccc(Cl)cc2)nc2cncnc2n1Cc1ccccc1Cl"
endpoint_result = "12.6 µM (inconclusive)"

[[record]]
molecule = "CSc1cccc(NC(=O)OC2CCCCCCCCCCC2)c1"
endpoint_result = "3.16 µM (inconclusive)"

[[record]]
molecule = "CCC(=O)Nc1cccc(NC(=O)CSc2nnnn2Cc2ccccc2)c1"
endpoint_result = "3.55 µM (inconclusive)"

[[record]]
molecule = "C[C@@]12CC[C@H]3[C@@H](CC[C@@H]4C[C@H](O)CC[C@]43C)[C@H]1CC[C@H]2O"
endpoint_result = "10 µM (inconclusive)"

[[record]]
molecule = "CCOc1ccc(C(F)(F)F)cc1NC(=O)c1ccc(OC)c([N+](=O)[O-])c1"
endpoint_result = "22.4 µM (inconclusive)"

[[record]]
molecule = "COc1ccc(-n2c(=O)c(-c3ccccc3)nc3cncnc32)cc1"
endpoint_result = "15.8 µM (inconclusive)"

[[record]]
molecule = "Cn1cc(-c2nc3cnc(Oc4ccccc4)nc3n(CCC#N)c2=O)c2ccccc21"
endpoint_result = "7.94 µM (inconclusive)"

[[record]]
molecule = "COCCNC(=O)c1onc(CSc2ccccc2F)c1C(=O)O"
endpoint_result = "35.5 µM (inconclusive)"

[[record]]
molecule = "O=C(Cc1ccccc1[N+](=O)[O-])NCc1ccccc1Cl"
endpoint_result = "15.8 µM (inconclusive)"

[[record]]
molecule = "CC1CCC(NC(=O)c2ccc(CS(=O)(=O)Cc3ccccc3F)o2)CC1 (stereo unspecified)"
endpoint_result = "14.1 µM (inconclusive)"

[[record]]
molecule = "O=C1OC(OC2CCCCC2)(c2ccccc2)c2ccccc21 (stereo unspecified)"
endpoint_result = "15.8 µM (inconclusive)"

[[record]]
molecule = "O=C(O)C1=CCCN(CCOC(c2ccc(C(F)(F)F)cc2)c2ccc(C(F)(F)F)cc2)C1"
endpoint_result = "39.8 µM (inconclusive)"

